Below is a list of entries, each paired with its recorded Fold Increase value.
molecular target: A*0201 class I MHC molecules in cells infected with the PR8 strain of influenza A virus (Homo sapiens, UniProt P04439, D140Y/D185E/D98H/E176V/E277Q/G131W/G231S/I119V/I121R/I166T/I218V/L300P/L318F/N151K/N90K/P208A/P217A/Q86G/Q94H/R138H/R169H/T345S); type: cell-based
property.label: Fold Increase

| item.sequence | recorded.result |
| --- | --- |
| AMIELVERL | 1.81 |
| GLDKQIQEL | 4.09 |
| GLWDKFSEL | 2.59 |
| KLEEIIHQI | 2.08 |
| VMDSKIVQV | 22.84 |
| SLDQPTQTV | 9.84 |
| LLDVVHPAA | 3.43 |
| GLIENDALL | 1.71 |
| KVFDPVPVGV | 1.74 |
| TLWDIQKDLK | 1.64 |
| IMLEALERV | 1.64 |
| ALASHLIEA | 1.67 |
| SLYEMVSRV | 1.87 |
| TLWGIQKEL | 3.27 |
| ILMEHIHKL | 5.46 |
| QLLGSAHEV | 4.98 |
| GLAKLIADV | 2.91 |
| ALNEKLVNL | 1.52 |
| GMYIFLHTV | 2.32 |
| SLFEGTWYL | 2.36 |
| ALWEAKEGGLL | 1.54 |
| SLLEKSLGL (listed as Homo sapiens) | 1.64 |
| ALLDKLYAL | 3.1 |
| KMLEKLPEL | 2.14 |
| TLDEYTTRV | 3.74 |
| ALVEIGPRFVL | 10.83 |
| ILGYTEHQV | 23.91 |
| SLAKIYTEA | 5.38 |
| GVIAEILRGV | 1.56 |
| GLLDPSVFHV | 2.17 |
| YLDIKGLLDV | 2.44 |
| ILCPMIFNL | 2.51 |
| FLLEKGYEV | 1.81 |
| RLYPWGVVEV | 2.79 |
| GLAEDSPKM | 2 |
